Tested on: OVCAR-8 ovarian
Test: NCI tumour cell line growth inhibition, 48 h; in the data active means GI50 below about 0.43 µM; inactive means the rest
In this exercise, the only acceptable responses are active, inactive

Req: What did this assay record as the result for CCN(CC)CCOc1ccc(Cc2ccccc2)cc1 ?
Resp: inactive

Req: Recorded call for COCC(=O)NC/C=C/c1ccc2ncnc(Nc3ccc(Oc4ccc(C)nc4)c(C)c3)c2c1 ?
Resp: inactive

* * *

Tested on: A549 NSCLC
Test: NCI tumour cell line growth inhibition, 48 h
Below is a list of entries, each paired with its recorded TGI value.

Answered cases to consult:
COMPOUND: C=COC(=O)N1C2CCCC(Cl)(C(C)=O)C1CC2 (stereo not drawn)
TGI: > 100 µM
--
COMPOUND: COc1ccc2c(c1)c(=O)c1c(NCCCN(C)C)ccc3ncn2c31
TGI: 14.5 µM
--
COMPOUND: COc1cc2c(cc1OC)-c1ncc3cc(OC)c(OC)c(OC)c3c1C2
TGI: > 100 µM
--
COMPOUND: COc1ncc(C#CC(=O)c2ccccc2)c(OC)n1
TGI: 33.1 µM
--
COMPOUND: CCCCCCC/C=C1\CCC(CN(C)C)C1=O (stereo not drawn)
TGI: 50 µM

TGI recorded for this compound, CC1(C)/C(=N\Nc2ccc([N+](=O)[O-])cc2[N+](=O)[O-])C2CCC1C2 (stereo not drawn) , is > 100 µM

Memo: Cc1nn(C(=O)c2ccncc2)c2c1C(c1ccc([N+](=O)[O-])cc1)SC(N)=N2 (stereo not drawn) , reported TGI: > 100 µM

Sample Clc1nc(Nc2nc3ccccc3[nH]2)nc(Cl)c1-c1ccccc1 ; TGI observed: > 100 µM

* * *

Form field: TGI (one value per entry).
Tested on: HOP-62 NSCLC
Assay: NCI tumour cell line growth inhibition, 48 h

Consider the reported TGI for these molecules:
MOLECULE: O=C1CN(c2ccccc2)C(=O)CN1CCN1CC(=O)N(c2ccccc2)CC1=O
RESULT: > 100 µM

MOLECULE: COc1cc(OC2OC(CO)C(O)C(O)C2O)c2c(c1)O[C@@H]1[C@H](O)Oc3cc(OC)c(OC)cc3[C@]1(O)C2=O (stereo partly specified)
RESULT: > 25 µM

// next item, TGI requested
Input S=C(S)N1CCN(c2ccccc2)CC1 . Output TGI: > 100 µM

* * *

System: SN12C renal
Assay: NCI tumour cell line growth inhibition, 48 h
Consider the following compounds and their measured log10 TGI readings.
Could you please treat all values as log10 of TGI in µM?

COMPOUND: COc1c(Cl)[c]([Hg][O]C(C)=O)c(NCC(C)=O)c(OC)[c]1[Hg][O]C(C)=O
log10 TGI: 1.56

log10 TGI in this record for C=CC(C)(C)n1cc(C2=C(O)C(=O)C(c3c(CC=C(C)C)[nH]c4ccccc34)=C(O)C2=O)c2ccccc21 : 0.56

// log10 TGI lookup, compound = COCC(=O)NC/C=C/c1ccc2ncnc(Nc3ccc(Oc4ccc(C)nc4)c(C)c3)c2c1 , result: 1.55

# log10 TGI (compound: CC(C)Cc1ccc(C(C)/C=C2\CCC(CN3CCCCC3)C2=O)cc1 (configuration not stated) ) is 0.65

Record O=C1c2ccccc2-c2c1c1ccc([N+](=O)[O-])cc1c(=O)n2CCCn1ccnc1 . Reported log10 TGI: -1.42

Quick note, log10 TGI for C#CCN(Cc1nc2cc(C(F)(F)F)ccc2nc1-c1ccccc1)c1ccc(F)cc1 landed at 1.98

# log10 TGI of CCCCCCC/C=C1\CCC(CN(C)C)C1=O (configuration not stated) = 1.24

// log10 TGI value for COC(=O)C1(Cc2ccc(C)cc2)Cc2c(C)cccc2C1=O (configuration not stated) : 1.64

Documented log10 TGI of CCCCCCCCCC[N+](C)(C)C : 0.94

CCCCn1c(C)c2c(c1C)C(=O)N(CCN1CCN(c3ccccc3Cl)CC1)C2=O has a reported log10 TGI of 1.79

Per the record, CCCCCCCCCCCCC(NC(C)=O)(C(=O)OCC)C(=O)OCC has log10 TGI of 1.34

Per the record, CN[C@H]1CC[C@]23C[C@]24CC[C@]2(C)[C@@H]([C@H](C)N(C)C)CC[C@@]2(C)[C@@H]4CC[C@H]3C1(C)C has log10 TGI of 1.46

response.value for COc1cc2c3cc1Oc1c(OC)c(OC)cc4c1C(Cc1ccc(O)c(c1)-c1cc(ccc1OC)CC3N(C)CC2)N(C)CC4 (configuration not stated) (field: log10 TGI) = 1.63

Input COc1cc(C2SCC(=O)N2NC(=O)c2ccc(NC(C)=O)cc2OC)ccc1O (configuration not stated) . Output log10 TGI: 1.90

Record C=C(C)C1CC2=C(O1)C(=O)c1cccc(O)c1C2=O (configuration not stated) , field log10 TGI: 0.39

* * *

System: OVCAR-3 ovarian
Experiment: NCI tumour cell line growth inhibition, 48 h
MEASUREMENT KIND: TGI (µM)
Write it as a number; the unit µM goes unstated.

Some entries whose results are on file:
COMPOUND: CC(C)Cc1ccc(C(C)/C=C2\CCC(CN3CCCCC3)C2=O)cc1 (stereo not drawn)
ASSAYED SYSTEM: OVCAR-3 ovarian
NUMBER: 11
--
COMPOUND: Cc1ccc(-n2c3c(c4c(CN)c(O)ccc42)CCc2ccccc2C3=O)cc1
ASSAYED SYSTEM: OVCAR-3 ovarian
NUMBER: 22.3
--
COMPOUND: COc1ccc(NS(=O)(=O)c2ccc(N=C3C=C(Nc4ccc(S(=O)(=O)Nc5ccc(OC)nn5)cc4)C(=O)c4ccccc43)cc2)nn1
ASSAYED SYSTEM: OVCAR-3 ovarian
NUMBER: 44.8

Record COc1cc2c3c(c1OC)C(=O)C(=O)C1=C3N(CCC1)CC2 has OVCAR-3 ovarian TGI equal to 73.3

CCN(CC)CCC(=O)N1C/C(=C/c2ccccc2)C(=O)/C(=C\c2ccccc2)C1 on OVCAR-3 ovarian gives TGI = 11

Per the reported OVCAR-3 ovarian data, Cn1cc2ccccc2c1-c1nc(F)nc(Nc2ccc(N)cc2)n1 has TGI of 48.3

Tested system OVCAR-3 ovarian; TGI recorded for O=S(=O)(NCCNc1cc(-c2cn(-c3ccccc3)nc2-c2cccc(O)c2)ccn1)c1ccc(Br)cc1 was 4.09

Summary line: COc1ccc(C[C@H]2NC[C@H](O)[C@H]2OC(C)=O)cc1 , OVCAR-3 ovarian, reported TGI = 0.335

// returns TGI for N#Cc1ccc(NC(=O)Nc2nc3ccc(OC(F)(F)F)cc3s2)cc1 with OVCAR-3 ovarian; value = 14.3

* * *

Tested on: T-47D breast
Experiment: NCI tumour cell line growth inhibition, 48 h
MEASUREMENT KIND: TGI (µM)
State just the number; it will be interpreted in µM.

Reported TGI for CCOC(=O)/C=C(/C(=O)OCC)n1ccc(=O)n(CC(=O)OCC)c1=O was 2.55

// C=C(C)[C@@H]1CC[C@]2(CN)CC[C@]3(C)[C@H](CC[C@@H]4[C@@]5(C)CCC(N)[C@@](C)(CO)[C@@H]5CC[C@]43C)[C@@H]12 (some centres not stated) : TGI value = 3.84

The compound listed as CCCCCCCCCCCCC(NC(C)=O)(C(=O)OCC)C(=O)OCC shows TGI equal to 20.7

Lab note: measured TGI of C[C@]12CC/C(=N\O)C=C1CC[C@@H]1[C@@H]2CC[C@]2(C)C(=N/O)/C(=C/c3ccncc3)C[C@@H]12 was 88.5

The reported TGI of the compound COC1C(O)CC(OC2CC(OC3CC(O[C@@H]4C(=O)c5c(cc6cc(OC7CC(OC8CC(O)C(O)C(C)O8)C(O)C(C)O7)c(C)c(O)c6c5O)CC4[C@H](OC)[C@@H](O)C(C)=O)OC(C)C3O)OC(C)C2O)OC1C (some centres not stated) was 0.307

Noted for COc1ccc2c(c1)c(-c1ccc(-c3cn(C)c4ccc(OC)cc34)o1)cn2C : its TGI reads 11.4

Lookup result for O=c1c(-c2nc3ccccc3[nH]2)cc2ccccc2n1Cc1cn(Cc2ccccc2Cl)nn1 ; measured TGI: 9.88

Recorded result, C[C@@H]1OC(=O)NN=C1c1ccc(-c2ccc(F)cc2)c(C(F)(F)F)c1 , TGI: 25.8

* * *

Tested on: MCF7 breast
Experiment: NCI tumour cell line growth inhibition, 48 h
# label = rule met if TGI >= 10 µM else rule not met

Worked examples, 5 compounds total:
COMPOUND: N[C@@H](Cc1ccc2oc3cc(=O)c4ccccc4c-3nc2c1)C(=O)O
CLASSIFICATION: rule not met
//
COMPOUND: COc1cccc(NC(=O)c2ccc(NC3=C(Cl)C(=O)N(Cc4ccccc4)C3=O)cc2)c1
CLASSIFICATION: rule met
//
COMPOUND: Cn1c(O)c(C=Nc2ccc(Cl)cc2Cl)c(=O)n(C)c1=O
CLASSIFICATION: rule met
//
COMPOUND: CCCCN1CCC(O)(c2cc(C(=O)O)[nH]c2-c2cc(C)no2)C1=O (stereo not given)
CLASSIFICATION: rule met
//
COMPOUND: C=C(C)C1CC2=C(O1)C(=O)c1cccc(O)c1C2=O (stereo not given)
CLASSIFICATION: rule not met

Req: Tell me whether TGI is at least 10 µM here: N#Cc1ccc(NC(=O)Nc2nc3ccc(OC(F)(F)F)cc3s2)cc1
Resp: rule met

Req: TGI >= 10 µM for COc1cc2c3cc1Oc1c(OC)c(OC)cc4c1C(Cc1ccc(O)c(c1)-c1cc(ccc1OC)CC3N(C)CC2)N(C)CC4 (stereo not given) ?
Resp: rule met

Req: Is TGI for Cc1cc(=O)n2nc(CSc3n[nH]c(=S)s3)sc2n1 at or above 10 µM?
Resp: rule met

Req: API: above_or_equal(metric=TGI, cutoff=10 µM) for item COc1ccc(C(=O)c2cc(C)c(OC)c(C)c2)c(OC)c1N(C(=O)CCl)C(=O)CCl
Resp: rule met

Req: State whether the measured TGI reaches 10 µM, counting equality as reaching it, for CCN(CC)CCOc1ccc(Cc2ccccc2)cc1
Resp: rule met
